Kindly state Binding selectivity ratio (Bcl-XL Ki/Bcl-2 Ki) for each of the entries shown.
# Tested on: GST-Bcl-2
# Experimental Protocol: TR-FRET binding assay, Bcl-2
# Details: TR-FRET Ki values
Just the number, please, no unit after it.

Query :: Specify Binding selectivity ratio (Bcl-XL Ki/Bcl-2 Ki) for CC1(C)CCC(CN2CCN(c3ccc(C(=O)NS(=O)(=O)c4ccc(NCC5(F)CCOCC5)c([N+](=O)[O-])c4)c(Oc4cccc5[nH]cnc45)c3)CC2)=C(c2ccc(Cl)cc2)C1 and stop.
Result :: 2421.9

Query :: Note Binding selectivity ratio (Bcl-XL Ki/Bcl-2 Ki) for the molecule shown: CC(c1ccccc1-c1ccc(Cl)cc1)N1CCN(c2ccc(C(=O)NS(=O)(=O)c3ccc(NCCCN4CCOCC4)c([N+](=O)[O-])c3)c(Oc3cccc4[nH]ccc34)c2)CC1 (centres unmarked)
Result :: 145.3

Query :: State, in one line, measured Binding selectivity ratio (Bcl-XL Ki/Bcl-2 Ki) of CN1CCC(Nc2ccc(S(=O)(=O)NC(=O)c3ccc(N4CCN(Cc5cc(OCCO)ccc5-c5ccc(Cl)cc5)CC4)cc3Oc3cccc4[nH]ccc34)cc2[N+](=O)[O-])CC1
Result :: 3005.2
